meta.source: patent US7745422B2

For each of the molecules below, state its log10 of EC50.
- Tested on: Vγ2Vδ2 T cells
- experiment notes: gammadelta T cell stimulation (TNF-α release assay)
- Assay type: cell-based, human
- condition context: Table 4; read-out: (3) gammadelta T cell stimulation EC50
The common logarithm of EC50 in µM is what is listed.

[ask] What log10 of EC50 value was documented for this molecule, CC(C)=CCCC(C)=CCc1ccc[n+](CC(P(=O)([O-])O)P(=O)(O)O)c1 (centres unmarked) [Compound 601] ?
[reply] 2.34

[ask] What log10 of EC50 value was documented for this molecule, CCCCOc1ccc(-c2ccc[n+](CC(P(=O)([O-])O)P(=O)(O)O)c2)cc1 (centres unmarked) [Compound 586] ?
[reply] 1.95

[ask] What log10 of EC50 value was documented for this molecule, O=P([O-])(O)C(O)(C[n+]1cccc(-c2ccc(C(F)(F)F)cc2)c1)P(=O)(O)O (centres unmarked) [Compound 449] ?
[reply] 1.08

[ask] What log10 of EC50 value was documented for this molecule, O=C(c1ccccc1)c1ccc[n+](CC(P(=O)([O-])O)P(=O)(O)O)c1 (centres unmarked) [Compound 530] ?
[reply] 3.81

[ask] What log10 of EC50 value was documented for this molecule, O=P([O-])(O)C(O)(C[n+]1ccc(C(F)(F)F)cc1)P(=O)(O)O (centres unmarked) [Compound 513] ?
[reply] 2.74

[ask] What log10 of EC50 value was documented for this molecule, O=Cc1cccc(-c2ccc[n+](CC(P(=O)([O-])O)P(=O)(O)O)c2)c1 (centres unmarked) [Compound 532] ?
[reply] 1.61

[ask] What log10 of EC50 value was documented for this molecule, O=P([O-])(O)C(O)(C[n+]1ccc(Cc2ccccc2)cc1)P(=O)(O)O (centres unmarked) [Compound 443] ?
[reply] 2.36

[ask] What log10 of EC50 value was documented for this molecule, O=P([O-])(O)C(C[n+]1cccc(I)c1)P(=O)(O)O (centres unmarked) [Compound 542] ?
[reply] 1.08

[ask] What log10 of EC50 value was documented for this molecule, O=P([O-])(O)C(O)(C[n+]1cc(F)cc(-c2ccccc2)c1)P(=O)(O)O (centres unmarked) [Compound 534] ?
[reply] 1.20

[ask] What log10 of EC50 value was documented for this molecule, CC([n+]1ccccc1)C(O)(P(=O)([O-])O)P(=O)(O)O (single isomer, unassigned) [Compound 583] ?
[reply] 1.70

[ask] What log10 of EC50 value was documented for this molecule, COc1cccc(-c2ccc[n+](CC(P(=O)([O-])O)P(=O)(O)O)c2)c1 (centres unmarked) [Compound 578] ?
[reply] 1.30
